# Protocol: Biodistribution in Jurkat tumor-bearing CB-17 SCID mice
# Format: in vivo
# Stated Conditions: female, CB-17 SCID, mouse, in vivo, iv, total radioactivity, % iD/g Blood
Non-standard residues stand in square brackets, D forms with d. Residues, ends and D or L forms follow the SMILES beside them. Groups on a side chain read outwards from the residue. *: point of attachment. 2Nal = N[C@@H](Cc1ccc2ccccc2c1)C(=O)O; dNMeOrn = CN[C@H](CCCN)C(=O)O; HYNIC = NNc1ccc(C(=O)*)cn1; 4Abz = Nc1ccc(C(=O)O)cc1; dDap = NC[C@@H](N)C(=O)O
Property Name: tissue uptake at 1 h (%ID/g)
Answer format: numeric, %ID/g implied, no suffix.

Query :: Report tissue uptake at 1 h for C[C@@H](NC(=O)[C@@H](CCCNC(=N)N)NC(=O)[C@@H](CN)NC(=O)c1ccc(NN)nc1)C(=O)Nc1ccc(C(=O)NCCC[C@@H]2C(=O)N[C@@H](CCCNC(=N)N)C(=O)N[C@@H](Cc3ccc4ccccc4c3)C(=O)NCC(=O)N[C@H](Cc3ccc(O)cc3)C(=O)N2C)cc1 [Tc-CXCR4-13] (cyclo([dY][dNMeOrn]([4Abz-dA-dR-dDap-HYNIC])R[2Nal]G))
Result :: 1.56
